experimentalSystem: Serine protease hepsin (Homo sapiens)
testDescription: Inhibition of recombinant human C-terminal His10-tagged hepsin catalytic domain preincubated for 30 mins followed by Boc-QAR-AMC substrate addition and measured for 1 hr by fluorescence assay
conditionLabel: read-out: Ki(app)
pKi: −log10 of the molar value.
endpointName: pKi

The cases that follow already have their pKi on record.
N=C(N)NCCC[C@H](NC(=O)[C@H](CO)NC(=O)OCC1c2ccccc2-c2ccccc21)C(=O)c1nc2ccccc2s1 6.26
N=C(N)NCCC[C@H](NC(=O)[C@H](CCC(N)=O)NC(=O)OCC1c2ccccc2-c2ccccc21)C(=O)c1nc2ccccc2s1 6.94
N=C(N)NCCC[C@H](NC(=O)[C@H](Cc1ccccc1)NC(=O)OCC1c2ccccc2-c2ccccc21)C(=O)c1nc2ccccc2s1 6.12

(a) CC[C@H](C)[C@H](NC(=O)OCC1c2ccccc2-c2ccccc21)C(=O)N[C@@H](CCCNC(=N)N)C(=O)c1nc2ccccc2s1
(b) N=C(N)NCCC[C@H](NC(=O)[C@@H]1CCCN1C(=O)OCC1c2ccccc2-c2ccccc21)C(=O)c1nc2ccccc2s1
# input Param pair: a , b . Output: the one whose pKi is numerically greater. Identify your selection by its label.
# output a
(a: 6.64, b: 6.41)

(P) CSCC[C@H](NC(=O)OCC1c2ccccc2-c2ccccc21)C(=O)N[C@@H](CCCNC(=N)N)C(=O)c1nc2ccccc2s1
(Q) N=C(N)NCCC[C@H](NC(=O)[C@H](CC(=O)O)NC(=O)OCC1c2ccccc2-c2ccccc21)C(=O)c1nc2ccccc2s1
(R) N=C(N)NCCC[C@H](NC(=O)[C@H](CCC(=O)O)NC(=O)OCC1c2ccccc2-c2ccccc21)C(=O)c1nc2ccccc2s1
# input # sort list by recorded pKi, greatest to least Thanks in advance for listing the labels in the requested order.
# output Q, P, R
(Q: 7.01, P: 6.64, R: 6.43)

(P) C[C@@H](O)[C@H](NC(=O)OCC1c2ccccc2-c2ccccc21)C(=O)N[C@@H](CCCNC(=N)N)C(=O)c1nc2ccccc2s1
(Q) CC(C)C[C@H](NC(=O)OCC1c2ccccc2-c2ccccc21)C(=O)N[C@@H](CCCNC(=N)N)C(=O)c1nc2ccccc2s1
# input From the items above, decide which of P and Q has the lower pKi reading. Provide the label of your selected option as the answer.
# output P

* * *

Listed next: entries and their corresponding Ratio Ki(app).
Species on record: Homo sapiens
testDescription: Selectivity ratio of Ki(app) for recombinant human C-terminal His10-tagged hepsin catalytic domain to Ki(app) for recombinant human N-terminal His6-tagged matriptase catalytic domain expressed in Escherichia coli
No unit in the answer, only the number.

# input So what's the measured Ratio Ki(app) for this one? C[C@H](NC(=O)OCC1c2ccccc2-c2ccccc21)C(=O)N[C@@H](CCCNC(=N)N)C(=O)c1nc2ccccc2s1
# output 667

# input Which Ratio Ki(app) value belongs to N=C(N)NCCC[C@H](NC(=O)[C@H](Cc1c[nH]c2ccccc12)NC(=O)OCC1c2ccccc2-c2ccccc21)C(=O)c1nc2ccccc2s1 ?
# output 1

# input I am curious: what Ratio Ki(app) value has been reported for N=C(N)NCCC[C@H](NC(=O)[C@H](Cc1ccc(O)cc1)NC(=O)OCC1c2ccccc2-c2ccccc21)C(=O)c1nc2ccccc2s1 ?
# output 10

# input Data request, read-out Ratio Ki(app), for N=C(N)NCCC[C@H](NC(=O)[C@H](Cc1ccccc1)NC(=O)OCC1c2ccccc2-c2ccccc21)C(=O)c1nc2ccccc2s1
# output 4
